Each recorded value in this set is attributed to patent US20240116985A1.

# tgt: beta-catenin/TCF4 engagement (Homo sapiens)
# Construct: expressed in transfected cells; host or cells: HEK293
# Sequence (P35222 whole entry): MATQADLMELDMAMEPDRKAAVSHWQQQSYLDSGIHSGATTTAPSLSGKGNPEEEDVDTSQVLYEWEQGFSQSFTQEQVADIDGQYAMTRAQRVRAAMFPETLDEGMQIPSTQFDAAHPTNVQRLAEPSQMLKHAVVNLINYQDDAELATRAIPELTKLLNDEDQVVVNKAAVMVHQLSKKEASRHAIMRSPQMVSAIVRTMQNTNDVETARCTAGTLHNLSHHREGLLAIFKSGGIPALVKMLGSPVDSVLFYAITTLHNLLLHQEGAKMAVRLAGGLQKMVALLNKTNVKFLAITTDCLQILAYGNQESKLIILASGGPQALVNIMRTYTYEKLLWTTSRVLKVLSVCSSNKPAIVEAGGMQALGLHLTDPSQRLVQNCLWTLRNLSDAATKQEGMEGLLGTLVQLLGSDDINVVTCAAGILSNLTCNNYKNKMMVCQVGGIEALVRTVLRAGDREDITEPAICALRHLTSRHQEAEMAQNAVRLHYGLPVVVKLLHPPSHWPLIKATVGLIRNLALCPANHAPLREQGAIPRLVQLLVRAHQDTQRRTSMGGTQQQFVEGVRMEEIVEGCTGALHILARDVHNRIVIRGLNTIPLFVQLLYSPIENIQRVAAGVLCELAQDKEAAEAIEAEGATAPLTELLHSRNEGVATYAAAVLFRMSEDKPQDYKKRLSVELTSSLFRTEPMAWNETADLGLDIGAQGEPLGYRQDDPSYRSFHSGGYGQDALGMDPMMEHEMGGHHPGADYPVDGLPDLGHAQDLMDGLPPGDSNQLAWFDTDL
# protocol notes: Nano-BRET target engagement assay (B-cat-Halo & TCF4-Luc in HEK293 cells)
# Assay type: cell-based
# measurement context: absolute IC50; read-out: NanoBRET Abs IC50
pIC50: −log10 of the molar value.
quantity: pIC50

>  <molecule>
CC(=O)N1CCC[C@]12CC=CCCCC1(CCCC=CCCCOC(=O)N3CC[C@@](C(=O)N[C@@H](Cc4ccsc4)C(=O)N[C@@H](Cc4ccc5ccccc5c4)C(=O)N[C@@H](CCC(N)=O)C(N)=O)(C3)NC(=O)[C@H](CC(C)C)NC(=O)[C@H](Cc3ccccc3)NC(=O)[C@H](C)NC(=O)[C@H](C)NC(=O)[C@H](Cc3cccc(C(=O)O)c3)NC(=O)[C@H](CC(=O)O)NC1=O)NC(=O)[C@H](CC(C)(C)C)NC(=O)[C@H](CC(=O)O)NC2=O (some centres unmarked)

>  <operator symbol>
=

>  <data value>
4.86

$$$$
>  <molecule>
CCCC[C@@H]1NC(=O)[C@H](Cc2ccccc2)NC(=O)[C@H](C)NC(=O)[C@H](C)NC(=O)[C@H](Cc2cccc(C(=O)O)c2)NC(=O)[C@H](CC(=O)O)NC(=O)C2(CCCC=CCCCOC(=O)N3CC[C@@](C(=O)N[C@@H](Cc4ccccc4C(F)(F)F)C(=O)N[C@@H](Cc4csc5ccccc45)C(=O)N[C@@H](CCC(=O)N(C)C)C(N)=O)(C3)NC1=O)CCCC=CC[C@]1(CCCN1C(C)=O)C(=O)N[C@@H](CC(=O)O)C(=O)N[C@@H](CC(C)(C)C)C(=O)N2 (some centres unmarked)

>  <operator symbol>
=

>  <data value>
5.21

$$$$
>  <molecule>
CC(=O)N1CCC[C@]12CC=CCCCC1(CCCC=CCCCOC(=O)N3CC[C@@](C(=O)N[C@@H](Cc4ccsc4)C(=O)N[C@@H](Cc4csc5ccccc45)C(=O)N[C@@H](CCC(N)=O)C(N)=O)(C3)NC(=O)[C@H](CC(N)=O)NC(=O)[C@H](Cc3ccccc3)NC(=O)[C@H](C)NC(=O)[C@H](C)NC(=O)[C@H]([C@@H](C)O)NC(=O)[C@H](CC(N)=O)NC1=O)NC(=O)[C@H](CC(C)(C)C)NC(=O)[C@H](CC(=O)O)NC2=O (some centres unmarked) [I-1564]

>  <operator symbol>
<

>  <data value>
4.70

$$$$
>  <molecule>
CC(=O)N1CCC[C@]12CC=CCCCC1(CCCC=CCCCOC(=O)N3CC[C@@](C(=O)N[C@@H](Cc4ccsc4)C(=O)N[C@@H](Cc4csc5ccccc45)C(=O)N[C@@H](CCC(N)=O)C(N)=O)(C3)NC(=O)[C@H](CC(C)C)NC(=O)[C@H](Cc3ccccc3)NC(=O)[C@H](C)NC(=O)[C@H](C)NC(=O)[C@H](CN(CC(=O)O)CC(F)(F)F)NC(=O)[C@H](CC(=O)O)NC1=O)NC(=O)[C@H](CCC(C)(C)C)NC(=O)[C@H](CC(=O)O)NC2=O (some centres unmarked)

>  <operator symbol>
=

>  <data value>
5.17

$$$$
>  <molecule>
CC(=O)N1CCC[C@]12CC=CCCCC1(CCCC=CCCCOC(=O)N3CC[C@@](C(=O)N[C@@H](Cc4ccsc4)C(=O)N[C@@H](Cc4csc5ccccc45)C(=O)N[C@@H](CCC(N)=O)C(N)=O)(C3)NC(=O)[C@H](CC(C)C)NC(=O)[C@H](Cc3ccccc3)NC(=O)[C@H](C)NC(=O)[C@H](C)NC(=O)[C@H](Cn3cc(C4(C(=O)O)CC4)nn3)NC(=O)[C@H](CC(=O)O)NC1=O)NC(=O)[C@H](CC(C)(C)C)NC(=O)[C@H](CC(=O)O)NC2=O (some centres unmarked)

>  <operator symbol>
=

>  <data value>
4.77

$$$$

* * *

Each record here notes measured pIC50.
# tgt: beta-catenin/TCF4 engagement (Homo sapiens)
# Construct: expressed in transfected cells; host or cells: HEK293
# protocol notes: Nano-BRET target engagement assay (B-cat-Halo & TCF4-Luc in HEK293 cells)
# Format: cell-based
# measurement context: absolute IC50; read-out: NanoBRET Abs IC50
pIC50: −log10 of the molar value.
quantity: pIC50

>  <molecule>
CC(=O)N1CCC[C@]12CC=CCCCC1(CCCC=CCCCOC(=O)N3CC[C@@](C(=O)N[C@@H](Cc4ccccc4Cl)C(=O)N[C@@H](Cc4csc5ccccc45)C(=O)N[C@@H](CCC(N)=O)C(N)=O)(C3)NC(=O)[C@H](CC(N)=O)NC(=O)[C@H](Cc3ccccc3)NC(=O)[C@H](CCCCNC(C)C)NC(=O)[C@H](C)NC(=O)[C@H](CC(=O)O)NC(=O)[C@H](CC(=O)O)NC1=O)NC(=O)[C@H](CC(C)(C)C)NC(=O)[C@H](CC(=O)O)NC2=O (some centres unmarked)

>  <operator symbol>
<

>  <data value>
4.70

$$$$
>  <molecule>
CC(=O)N1CCC[C@]12CC=CCCCC1(CCCC=CCCCOC(=O)N3CC[C@@](C(=O)N[C@@H](Cc4ccccc4C(F)(F)F)C(=O)N[C@@H](Cc4csc5ccccc45)C(=O)N[C@@H](CCC(=O)N(C)C)C(N)=O)(C3)NC(=O)[C@H](CCC(=O)N3CCOCC3)NC(=O)[C@H](Cc3ccccc3)NC(=O)[C@H](C)NC(=O)[C@H](C)NC(=O)[C@H](Cc3cccc(C(=O)O)c3)NC(=O)[C@H](CC(=O)O)NC1=O)NC(=O)[C@H](CC(C)(C)C)NC(=O)[C@H](CC(=O)O)NC2=O (some centres unmarked) [I-2538]

>  <operator symbol>
=

>  <data value>
5.46

$$$$

* * *

# tgt: beta-catenin/TCF4 engagement (Homo sapiens)
# Construct: expressed in transfected cells; host or cells: HEK293
# protocol notes: Nano-BRET target engagement assay (B-cat-Halo & TCF4-Luc in HEK293 cells)
# Format: cell-based
# measurement context: read-out: NanoBRET Abs IC50
pIC50: −log10 of the molar value.

>  <compound>
C#CCOCCOCCOCCC(=O)NCCCC[C@H](NC(=O)[C@H](CCC(N)=O)NC(=O)[C@H](Cc1csc2ccccc12)NC(=O)[C@H](Cc1ccsc1)NC(=O)[C@]12CCN(C1)C(=O)OCCCC=CCCCC1(CCCC=CC[C@]3(CCCN3C(C)=O)C(=O)N[C@@H](CC(=O)O)C(=O)N[C@@H](CC(C)(C)C)C(=O)N1)C(=O)N[C@@H](CC(=O)O)C(=O)N[C@@H](CC(=O)O)C(=O)N[C@@H](C)C(=O)N[C@@H](C)C(=O)N[C@@H](Cc1ccccc1)C(=O)N[C@@H](CC(N)=O)C(=O)N2)C(N)=O (stereo partly shown) [I-937]

>  <pIC50>
4.54

$$$$

* * *

# protocol notes: CHI Log D procedure
# Type: physicochemical
# measurement context: pH 7.4
As shown below, each of these compounds has a reported CHI Log D value.

>  <compound>
CC(=O)N1CCC[C@]12CC=CCCCC1(CCCC=CCCCCCC[C@@](C)(C(=O)N[C@@H](Cc3ccccc3)C(=O)N[C@@H](Cc3csc4ccccc34)C(=O)N[C@@H](CCC(N)=O)C(N)=O)NC(=O)[C@H](CC(N)=O)NC(=O)[C@H](Cc3ccccc3)NC(=O)[C@H](C)NC(=O)[C@H](C)NC(=O)[C@H](CC(=O)O)NC(=O)[C@H](CC(=O)O)NC1=O)NC(=O)[C@H](C)NC(=O)[C@H](CC(=O)O)NC2=O (stereo partly drawn) [I-343]

>  <CHI Log D>
1.931

$$$$
>  <compound>
CC(=O)N1CCC[C@]12CC=CCCCC1(CCCC=CCCCCCC[C@@](C)(C(=O)N[C@@H](Cc3ccccc3)C(=O)N[C@@H](Cc3c[nH]c4ccccc34)C(=O)N[C@@H](CCC(N)=O)C(N)=O)NC(=O)[C@H](C(C)C)NC(=O)[C@H](Cc3cccc(Cl)c3)NC(=O)[C@H](C)NC(=O)[C@H](C)NC(=O)[C@H](CC(=O)O)NC(=O)[C@H](CC(=O)O)NC1=O)NC(=O)[C@H](C)NC(=O)[C@H](CC(=O)O)NC2=O (stereo partly drawn) [I-307]

>  <CHI Log D>
2.055

$$$$
>  <compound>
CC(=O)N[C@@H](Cc1ccccc1)C(=O)N[C@@H](CC(=O)O)C(=O)N[C@@H](C)C(=O)N[C@]1(C)CCCCCCC=CCOC(=O)N2CC[C@@](C(=O)N[C@@H](Cc3ccccc3)C(=O)N[C@@H](Cc3c[nH]c4ccccc34)C(=O)N[C@@H](CCC(N)=O)C(N)=O)(C2)NC(=O)[C@H](C(C)C)NC(=O)[C@H](Cc2ccccc2)NC(=O)[C@H](C)NC(=O)[C@H](C)NC(=O)[C@H](CCc2ccccc2)NC(=O)[C@H](CC(=O)O)NC1=O [I-97]

>  <CHI Log D>
2.062

$$$$
